Overview of reported pIC50 across a group of compounds:
# test_target: PAD4 enzyme (Homo sapiens (Human))
# measurement_notes: Ammonia Release Biochemical Assay (citrullination detected via ammonia release)
# experimental_context: PAD4 120 nM, substrate BAEE, 60-min preincubation, read-out: NH3 release
pIC50: −log10 of the molar value.
property: pIC50

                                   compound       reading
0  COc1ccc2c(c1)cc(-c1nc3cc(C(=O)N4CCC[C@@H](N)C4)cc4c3n1CCO4)n2CC1CC1 [Example 60]        ≥ 6.00
1  CCOCCS(=O)(=O)N1CCn2c(-c3cc4ccccc4n3CC3CC3)nc3cc(C(=O)N4CCC[C@@H](N)C4)cc1c32 [Example 83]  5.00 to 6.00
2  N[C@@H]1CCCN(C(=O)c2cc3c4c(c2)nc(-c2cc5ccccc5n2Cc2ccncc2)n4CCN3)C1 [Example 71]        ≥ 6.00
3  COc1ccc(Cn2c(-c3nc4cc(C(=O)N5CCC[C@@H](N)C5)cc5c4n3CCO5)cc3cc(F)ccc32)cc1 [Example 46]        ≥ 6.00
4  N[C@@H]1CCCN(C(=O)c2cc3c4c(c2)nc(-c2cc5ccccc5n2CC2CC2)n4CCN3S(=O)(=O)C2CC2)C1 [Example 82]  5.00 to 6.00
5  N[C@@H]1CCCN(C(=O)c2cc3c4c(c2)nc(-c2cc5ccccc5n2CC2CC2)n4CCN3C2CC2)C1 [Example 78]        ≥ 6.00
6  N[C@@H]1CCCN(C(=O)c2cc3c4c(c2)nc(-c2cc5ccccc5n2CC2CC2)n4CCCO3)C1 [Example 6]  5.00 to 6.00

###

# test_target: PAD4 enzyme (Homo sapiens (Human))
# measurement_notes: Ammonia Release Biochemical Assay (citrullination detected via ammonia release)
# experimental_context: PAD4 120 nM, substrate BAEE, 60-min preincubation, read-out: NH3 release
pIC50: −log10 of the molar value. Structures can show the parent of a compound that is named as a salt.
property: pIC50

In [3]: df
Out[3]:
                                    molecule  property       reading
 0  COc1ccc2cc(-c3nc4cc(C(=O)N5CCC[C@@H](N)C5)cc5c4n3CCO5)n(CC3CC3)c2c1     pIC50        ≥ 6.00
 1  N[C@@H]1CCCN(C(=O)c2cc3c4c(c2)nc(-c2cc5ccccc5n2CC2CCNCC2)n4CCO3)C1     pIC50        ≤ 5.00
 2  CN(C)C/C=C/C(=O)N[C@@H]1CCCN(C(=O)c2cc3c4c(c2)nc(-c2cc5ccccc5n2CC2CC2)n4CCO3)C1 [Example 38, trifluoroacetic acid salt]     pIC50        ≤ 5.00
 3  CC(C)Cn1c(-c2nc3cc(C(=O)N4CCC[C@@H](N)C4)cc4c3n2CCO4)cc2ccccc21     pIC50        ≥ 6.00
 4  COc1ccc2cc(-c3nc4cc(C(=O)N5CCC[C@@H](N)C5)cc5c4n3CCO5)n(Cc3ccc(F)cc3)c2c1     pIC50        ≥ 6.00
 5  N[C@@H]1CCN(C(=O)c2cc3c4c(c2)nc(-c2cc5ccccc5n2CC2CC2)n4CCCO3)C1     pIC50  5.00 to 6.00
 6  Cc1cccc2cc(-c3nc4cc(C(=O)N5CCC[C@@H](N)C5)cc5c4n3CCN5)n(CC3CC3)c12     pIC50        ≥ 6.00
 7  N[C@@H]1CCCN(C(=O)c2cc3c4c(c2)nc(-c2cc5ccccc5n2CC2CCOCC2)n4CCO3)C1     pIC50  5.00 to 6.00
 8  COCCn1c(-c2nc3cc(C(=O)N4CCC[C@@H](N)C4)cc4c3n2CCO4)cc2ccc(OC)cc21     pIC50        ≥ 6.00
 9  CC(=O)N1CCn2c(-c3cc4ccccc4n3CC3CC3)nc3cc(C(=O)N4CCC[C@@H](N)C4)cc1c32     pIC50        ≥ 6.00
10  N[C@@H]1CCCN(C(=O)c2cc3c4c(c2)nc(-c2cc5cc(/C=C/c6ccccc6)ccc5n2CC2CC2)n4CCO3)C1     pIC50  5.00 to 6.00
11  N[C@@H]1CCCN(C(=O)c2cc3c4c(c2)nc(-c2cc5ccccc5n2Cc2cncnc2)n4CCO3)C1     pIC50  5.00 to 6.00
12  COc1ccc(Cn2c(-c3nc4cc(C(=O)N5CCC[C@@H](N)C5)cc5c4n3CCO5)cc3ccc(F)cc32)cc1     pIC50        ≥ 6.00
13  N[C@@H]1CCCN(C(=O)c2cc3c4c(c2)nc(-c2cc5ccccc5n2Cc2ccccc2F)n4CCO3)C1     pIC50  5.00 to 6.00

###

Overview of reported pIC50 across a group of compounds:
# test_target: PAD4 enzyme (Homo sapiens (Human), UniProt Q9UM07)
# Sequence (Q9UM07 whole entry): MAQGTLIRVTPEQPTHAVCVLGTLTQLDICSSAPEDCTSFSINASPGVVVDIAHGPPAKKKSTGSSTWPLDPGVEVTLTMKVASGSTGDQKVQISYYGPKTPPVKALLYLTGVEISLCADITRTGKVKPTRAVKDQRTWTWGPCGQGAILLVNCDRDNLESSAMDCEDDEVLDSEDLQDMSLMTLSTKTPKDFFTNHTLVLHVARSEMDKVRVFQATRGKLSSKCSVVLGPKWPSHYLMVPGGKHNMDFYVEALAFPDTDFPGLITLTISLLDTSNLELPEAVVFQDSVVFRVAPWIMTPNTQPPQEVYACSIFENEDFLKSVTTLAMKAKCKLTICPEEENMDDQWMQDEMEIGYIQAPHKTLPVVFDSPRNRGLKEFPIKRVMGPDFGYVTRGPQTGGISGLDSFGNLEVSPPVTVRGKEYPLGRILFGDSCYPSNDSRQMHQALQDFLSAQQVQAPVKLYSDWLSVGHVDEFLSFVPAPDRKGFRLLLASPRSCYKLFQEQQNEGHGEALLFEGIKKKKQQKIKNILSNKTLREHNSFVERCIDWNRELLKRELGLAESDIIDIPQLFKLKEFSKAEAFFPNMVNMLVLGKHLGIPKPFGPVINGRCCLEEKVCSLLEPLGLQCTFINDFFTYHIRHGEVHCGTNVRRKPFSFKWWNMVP
# measurement_notes: FP Binding Assay
# experimental_context: PAD4 1 uM, 10 nM fluorescein labelled probe JPAD-00085
pIC50: −log10 of the molar value.
property: pIC50

>>> df
                                    compound       reading
 0  N[C@@H]1CCCN(C(=O)c2cc3c4c(c2)nc(-c2cc5ccccc5n2Cc2ccc(F)cc2)n4CCO3)C1 [Example 15]  5.00 to 6.00
 1  CS(=O)(=O)N1CCn2c(-c3cc4ccccc4n3CC3CC3)nc3cc(C(=O)N4CCC[C@@H](N)C4)cc1c32 [Example 76]  5.00 to 6.00
 2  CCn1c(-c2nc3cc(C(=O)N4CCC[C@@H](N)C4)cc4c3n2CCO4)cc2cccnc21 [Example 5]  5.00 to 6.00
 3  N[C@@H]1CCCN(C(=O)c2cc3c4c(c2)nc(-c2cc5ccccc5n2CC2CC2)n4CCO3)C1 [Example 1]  5.00 to 6.00
 4  N[C@@H]1CCCN(C(=O)c2cc3c4c(c2)nc(-c2cc5ccccc5n2Cc2cccnc2)n4CCN3)C1 [Example 66]  5.00 to 6.00
 5  COc1cc2cc(-c3nc4cc(C(=O)N5CCC[C@@H](N)C5)cc5c4n3CCO5)n(CC3CC3)c2cc1OC [Example 17]  5.00 to 6.00
 6  N[C@@H]1CCCN(C(=O)c2cc3c4c(c2)nc(-c2cc5ccc(F)cc5n2CC2CC2)n4CCN3)C1 [Example 65]        ≥ 6.00
 7  N[C@@H]1CCCN(C(=O)c2cc3c4c(c2)nc(-c2cc5ccccc5n2Cc2cccnc2)n4CCO3)C1 [Example 16]  5.00 to 6.00
 8  N[C@@H]1CCCN(C(=O)c2cc3c4c(c2)nc(-c2cc5cc(F)ccc5n2CC2CC2)n4CCO3)C1 [Example 9]        ≥ 6.00
 9  N[C@@H]1CCCN(C(=O)c2cc3c4c(c2)nc(-c2cc5ccccc5n2Cc2ccc(Cl)cc2)n4CCO3)C1 [Example 13]  5.00 to 6.00
10  N[C@@H]1CCCN(C(=O)c2cc3c4c(c2)nc(-c2cc5ccccc5n2Cc2ccccc2)n4CCO3)C1 [Example 18]  5.00 to 6.00

###

# test_target: UniProtKB Q9UM07
# measurement_notes: Ammonia Release Biochemical Assay (citrullination detected via ammonia release)
# experimental_context: PAD4 120 nM, substrate BAEE, 60-min preincubation, read-out: NH3 release
# Procedure: Ammonia Release Biochemical Assay Citrullination assay was detected via ammonia release. PAD4 enzyme was diluted to 120 nM in assay buffer (100 mM HEPES, 50 mM NaCl, 2 mM DDT, 0.6 mg/mL BSA, pH 7.4) added to wells containing various concentration of compound or DMSO vehicle (1% final) in black 384 well plate. […] Assay was incubated at room temperature for 90 min before measuring fluorescence's (λex 405/λem 460 nm) on Tecan reader. IC50 was calculated using XL-fit software model 205. […]
Overview of reported IC50 across a group of molecules:
property: IC50

In [3]: df
Out[3]:
                                   molecule  property     reading
0  N[C@@H]1CCCN(C(=O)c2cc3c4c(c2)nc(-c2cc5ccccc5n2CC2CC2)n4CCN3S(=O)(=O)c2ccc(Cl)cc2)C1 [Example 81]      IC50     ≥ 10 µM
1  N[C@@H]1CCCN(C(=O)c2cc3c4c(c2)nc(-c2cc5ccccc5n2Cc2cccnn2)n4CCO3)C1 [Example 30]      IC50  1 to 10 µM
2  N[C@@H]1CCCN(C(=O)c2cc3c4c(c2)nc(-c2cc5ccccc5n2Cc2ccccn2)n4CCN3)C1 [Example 69]      IC50      ≤ 1 µM
3  N[C@@H]1CCCN(C(=O)c2cc3c4c(c2)nc(-c2cc5cccc(Cl)c5n2CC2CC2)n4CCO3)C1 [Example 57]      IC50      ≤ 1 µM
4  N[C@@H]1CCCN(C(=O)c2cc3c4c(c2)nc(-c2cc5cc(Br)ccc5n2CC2CC2)n4CCN3)C1 [Example 67]      IC50      ≤ 1 µM
5  Cc1csc(Cn2c(-c3nc4cc(C(=O)N5CCC[C@@H](N)C5)cc5c4n3CCO5)cc3ccccc32)n1 [Example 59]      IC50      ≤ 1 µM
6  COCCn1c(-c2nc3cc(C(=O)N4CCC[C@@H](N)C4)cc4c3n2CCO4)cc2ccc(F)cc21 [Example 52]      IC50  1 to 10 µM
